Consider the following binders and their measured pKd readings.
Study target: T1, purified ALK protein (BLitz, Table 20) (Homo sapiens (Human), UniProt Q9UM73 19-1038, limits assumed)
T1 construct: also called purified ALK proteins
T1 sequence (Q9UM73 19-1038 limits assumed): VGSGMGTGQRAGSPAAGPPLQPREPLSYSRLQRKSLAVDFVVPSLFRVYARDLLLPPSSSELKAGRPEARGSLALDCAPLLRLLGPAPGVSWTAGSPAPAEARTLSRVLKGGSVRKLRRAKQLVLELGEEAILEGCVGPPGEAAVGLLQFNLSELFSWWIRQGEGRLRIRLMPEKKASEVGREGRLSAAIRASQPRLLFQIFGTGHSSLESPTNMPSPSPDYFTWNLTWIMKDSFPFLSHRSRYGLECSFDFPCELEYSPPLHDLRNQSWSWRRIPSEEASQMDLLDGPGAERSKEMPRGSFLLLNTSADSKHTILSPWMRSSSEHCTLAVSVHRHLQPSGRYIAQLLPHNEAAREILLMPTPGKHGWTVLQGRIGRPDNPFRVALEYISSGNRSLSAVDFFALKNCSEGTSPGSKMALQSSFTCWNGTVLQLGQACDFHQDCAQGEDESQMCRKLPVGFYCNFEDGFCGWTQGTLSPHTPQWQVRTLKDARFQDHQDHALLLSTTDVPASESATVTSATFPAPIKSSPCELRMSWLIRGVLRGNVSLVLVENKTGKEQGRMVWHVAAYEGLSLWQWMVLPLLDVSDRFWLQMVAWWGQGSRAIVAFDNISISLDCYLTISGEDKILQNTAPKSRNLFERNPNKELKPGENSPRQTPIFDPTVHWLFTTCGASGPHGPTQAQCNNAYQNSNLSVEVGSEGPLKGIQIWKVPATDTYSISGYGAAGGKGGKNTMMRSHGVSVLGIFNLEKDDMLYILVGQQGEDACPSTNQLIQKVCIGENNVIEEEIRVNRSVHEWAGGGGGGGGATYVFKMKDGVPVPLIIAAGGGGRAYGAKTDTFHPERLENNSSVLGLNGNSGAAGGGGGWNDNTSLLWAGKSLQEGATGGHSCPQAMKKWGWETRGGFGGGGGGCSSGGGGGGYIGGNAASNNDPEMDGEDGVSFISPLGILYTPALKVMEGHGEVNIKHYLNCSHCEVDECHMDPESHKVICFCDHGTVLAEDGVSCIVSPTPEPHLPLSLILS
Test method notes: BLI (BLitz), mAb on Protein A tip, purified ALK in solution
pKd: −log10 of the molar value.

Binder	pKd
Ab405 (antibody, V domains shown, humanized) VH: EVQLVQSGAEVAKPGASVKLSCKASGYTFTSYWMHWVRQAPGQGLEWIGYIKPSSGYTKYNQKFKDKATLTADKSTSTAYMELRSLRSDDTAVYYCARDYYGSSSWFAYWGQGTLVTVSS VL: EIVMTQSQATMSTSVGERATLSCKASQNVGTNVAWYQQKPGQSPKALIYSASYRYSGVPARFSGSGSGTDFTLTISSVEPEDFAVYYCQQYNSYPYMYTFGQGTKLEIK	6.71
Ab417 (antibody, V domains shown, humanized) VH: EVQLVQSGAEVAKPGASVKLSCKASGYTFTSYWMHWVRQAPGQGLEWIGYIKPSSGYTKYNQKFKDKATLTADKSTSTAYMELRSLRSDDTAVYYCARDYYGSSSWFAYWGQGTLVTVSS VL: EIVMTQSQATLSTSPGERATLSCKASQNVGTNVAWYQQKPGQAPRALIYSASYRYSGVPARFSGSGSGTDFTLTISSVEPEDFAVYYCQQYNSYPYMYTFGQGTKLEIK	6.77
Ab388 (antibody, V domains shown, humanized) VH: EVQLVQSGPEVKKPGTSVKLSCKASGYTFTSYWMHWVRQARGQRLEWIGYIKPSSGYTKYNQKFKDRATLTADKSTSTAYMELSSLRSEDTAVYYCARDYYGSSSWFAYWGQGTLVTVSS VL: EIVMTQSPATLSTSPGERATLSCKASQNVGTNVAWYQQKPGQAPRALIYSASYRYSGVPARFSGSGSGTDFTLTISSVEPEDFAVYYCQQYNSYPYMYTFGQGTKLEIK	6.97
Ab439 (antibody, V domains shown, humanized) VH: QVQLVQSGAEVAKPGASVKLSCKASGYTFTSYWMHWVKQAPGQGLEWIGYIKPSSGYTKYNQKFKDKATLTADKSTSTAYMELRSLRSDDTAVYYCARDYYGSSSWFAYWGQGTLVTVSS VL: EIVMTQSQATMSTSVGERATLSCKASQNVGTNVAWYQQKPGQSPKALIYGASTRATGVPARFSGSGSGTDFTLTISSVEPEDFAVYYCQQYNSYPYMYTFGQGTKLEIK	6.86
Ab377 (antibody, V domains shown, humanized) VH: EVQLVQSGAEVKKPGTSVKLSCKASGYTFTSSAMQWVKQAPGQGLEWIGYIKPSSGYTKYNQKFKDKATLTADKSTSTAYMELSSLRSEDTAVYYCARDYYGSSSWFAYWGQGTLVTVSS VL: EIVMTQSPAFMSVTVGEKVTITCKASQNVGTNVAWYQQKPDQSPKALIYSASYRYSGVPSRFSGSGSGTDFTLTISSLEAEDAATYYCQQYNSYPYMYTFGQGTKLEIK	6.03
Ab395 (antibody, V domains shown, humanized) VH: QVQLVQSGAEVAKPGSSVKLSCKASGYTFTSYWMHWVKQAPGQGLEWIGYIKPSSGYTKYNQKFKDKATLTADKSTSTAYMELSSLRSEDTAVYYCARDYYGSSSWFAYWGQGTLVTVSS VL: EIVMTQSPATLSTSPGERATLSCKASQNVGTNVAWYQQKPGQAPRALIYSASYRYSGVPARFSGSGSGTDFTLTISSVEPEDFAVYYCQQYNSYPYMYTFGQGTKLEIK	6.88
Ab375 (antibody, V domains shown, humanized) VH: QVQLVQSGAEVAKPGTSVKLSCKASGYTFTSYWMHWVKQAPGQGLEWIGYIKPSSGYTKYNQKFKDKVTLTADKSTSTAYMELSSLRSEDTAVYYCARDYYGSSSWFAYWGQGTLVTVSS VL: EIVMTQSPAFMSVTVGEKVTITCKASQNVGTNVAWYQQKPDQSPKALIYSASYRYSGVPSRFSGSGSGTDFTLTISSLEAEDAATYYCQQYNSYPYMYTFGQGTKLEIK	6.85
Ab369 (antibody, V domains shown, humanized) VH: EVQLVQSGAEVAKPGASVKLSCKASGYTFTSYWMHWVRQAPGQGLEWIGYIKPSSGYTKYNQKFKDKATLTADKSTSTAYMELRSLRSDDTAVYYCARDYYGSSSWFAYWGQGTLVTVSS VL: DIVMTQSQAFMSVTVGEKVTITCKASQNVGTNVAWYQQKPDQAPKALIYSASYRYSGVPSRFSGSGSGTDFTLTISSLEAEDAATYYCQQYNSYPYMYTFGQGTKLEIK	6.68
Ab386 (antibody, V domains shown, humanized) VH: EVQLVQSGAEVKKPGSSVKLSCKASGYTFSSYWMHWVKQAPGQGLEWIGYIKPSSGYTKYAQKFQGRVTLTADKSTSTAYMELSSLRSEDTAVYYCARDYYGSSSWFAYWGQGTLVTVSS VL: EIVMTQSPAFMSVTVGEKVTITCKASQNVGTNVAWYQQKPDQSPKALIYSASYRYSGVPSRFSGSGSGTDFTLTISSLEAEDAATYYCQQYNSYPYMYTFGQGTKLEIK	6.59
Ab416 (antibody, V domains shown, humanized) VH: EVQLVQSGAEVKKPGASVKLSCKASGYTFTSYWMHWVRQAPGQGLEWIGYIKPSSGYTKYNQKFKDKATLTADKSTSTAYMELRSLRSDDTAVYYCARDYYGSSSWFAYWGQGTLVTVSS VL: EIVMTQSQATLSTSPGERATLSCKASQNVGTNVAWYQQKPGQAPRALIYSASYRYSGVPARFSGSGSGTDFTLTISSVEPEDFAVYYCQQYNSYPYMYTFGQGTKLEIK	6.74
